experiment: amyloid nucleation score (Sup35N fusion, yeast selection) (log enrichment); library NNK3; higher = more nucleation; inactive = no reads after selection;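 note: zero at mode of non-aggregating sequences after 7 days selection at 30°C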
measured-property: amyloid nucleation score

Worked set:
substance: GLRVQCWECTIRSFGV
amyloid nucleation score: 0.448
//
substance: KYFRNIYWHISRRIWAKAPG
amyloid nucleation score: inactive
//
substance: HLSLAVEFA
amyloid nucleation score: inactive
//
substance: VYHWFWMQRLNGWFENQQRK
amyloid nucleation score: inactive

Exam item: Give recorded amyloid nucleation score. RTRFVCICTSSNSLLYGRSS
Marked response: 0.714

Exam item: Give recorded amyloid nucleation score. MINSHDL
Marked response: inactive

Exam item: Give recorded amyloid nucleation score. QCVVVKCCWRDNRWLGSDLV
Marked response: -0.178

Exam item: Give recorded amyloid nucleation score. FVTAKQCVVCRQ
Marked response: inactive

Exam item: Give recorded amyloid nucleation score. TSTHCIIWLGRSDRRREMQL
Marked response: -0.752

Exam item: Give recorded amyloid nucleation score. VQTSHHNAVEICCMCLCQML
Marked response: 3.02

* * *

assay: amyloid nucleation score (Sup35N fusion, yeast selection) (log enrichment); library NNK1; higher = more nucleation; inactive = no reads after selection
measured-property: amyloid nucleation score

Worked set:
substance: FVSYTSP
amyloid nucleation score: -0.079
//
substance: ARVPSKYRVEVHGRKKAWRG
amyloid nucleation score: -0.814
//
substance: QDRNVSWLYIGSVTGRRVAG
amyloid nucleation score: 0.488
//
substance: ISSILFLQCLSWGGNR
amyloid nucleation score: 5.38
//
substance: KFVYVVVMSMARACRNVPGH
amyloid nucleation score: 0.272
//
substance: RNYLIDV
amyloid nucleation score: -0.668

Exam item: Give recorded amyloid nucleation score. CFWVEMFFSETHMIKNYCIV
Marked response: 1.27

Exam item: Give recorded amyloid nucleation score. PVGGHMVRLSSMSNSLAFKV
Marked response: -0.563

Exam item: Give recorded amyloid nucleation score. AVVAIYSQILRNGSVLSWFP
Marked response: 0.242

Exam item: Give recorded amyloid nucleation score. FLWSYWPCSVGTEMTSQVRI
Marked response: -0.459

* * *

assay: amyloid nucleation score (Sup35N fusion, yeast selection) (log enrichment); library NNK1; higher = more nucleation; inactive = no reads after selection
# cutoff 0.08 applies to amyloid nucleation score; >= gives true, < gives false

Below, 2 substances whose answers are already recorded.
substance: ELLCLNL
assigned-category: false
//
substance: YWSQTRFYSMALSRSDSERT
assigned-category: true

Exam item: amyloid nucleation score >= 0.08 for FHMARKQETTSI ?
Marked response: false

Exam item: amyloid nucleation score >= 0.08 for YIGVRCG ?
Marked response: false

Exam item: amyloid nucleation score >= 0.08 for ASFASKARHKR ?
Marked response: true

Exam item: amyloid nucleation score >= 0.08 for VQWLHDMLVHFN ?
Marked response: false

Exam item: amyloid nucleation score >= 0.08 for VFHSMC ?
Marked response: true

* * *

experiment: amyloid nucleation score (Sup35N fusion, yeast selection) (log enrichment); library NNK2; higher = more nucleation; inactive = no reads after selection
# cutoff 0.05 applies to amyloid nucleation score; >= gives class 1, < gives class 0

Below, 10 substances whose answers are already recorded.
substance: MCLYVRLWFMSPVSLDSSAL
assigned-category: class 0
//
substance: MIRLRIVYGTLDMYGLQMYS
assigned-category: class 1
//
substance: VGGQRHWYLYHDSLHFPQLE
assigned-category: class 1
//
substance: VICNLDCLEVEGGILDQ
assigned-category: class 0
//
substance: SLCGRRFNTDEPLLETRSSL
assigned-category: class 1
//
substance: RTCSRGSFTYMEIGNVGRGC
assigned-category: class 1
//
substance: GRNFYESNCAMFDRYSCFGS
assigned-category: class 1
//
substance: RLEALRCLSYITSSSLYRCP
assigned-category: class 1
//
substance: IYTSSGL
assigned-category: class 0
//
substance: DQFSGNACSIIVLVSALACF
assigned-category: class 1

From here, focus on the item given below.
Exam item: amyloid nucleation score >= 0.05 for WFNFVPYHADYGNFL ?
Marked response: class 1
